These data points were gathered from paper PMC6238398.

Target Entity: hStau1 FL (Homo sapiens, UniProt O95793 1-577)
Sequence (O95793 whole entry): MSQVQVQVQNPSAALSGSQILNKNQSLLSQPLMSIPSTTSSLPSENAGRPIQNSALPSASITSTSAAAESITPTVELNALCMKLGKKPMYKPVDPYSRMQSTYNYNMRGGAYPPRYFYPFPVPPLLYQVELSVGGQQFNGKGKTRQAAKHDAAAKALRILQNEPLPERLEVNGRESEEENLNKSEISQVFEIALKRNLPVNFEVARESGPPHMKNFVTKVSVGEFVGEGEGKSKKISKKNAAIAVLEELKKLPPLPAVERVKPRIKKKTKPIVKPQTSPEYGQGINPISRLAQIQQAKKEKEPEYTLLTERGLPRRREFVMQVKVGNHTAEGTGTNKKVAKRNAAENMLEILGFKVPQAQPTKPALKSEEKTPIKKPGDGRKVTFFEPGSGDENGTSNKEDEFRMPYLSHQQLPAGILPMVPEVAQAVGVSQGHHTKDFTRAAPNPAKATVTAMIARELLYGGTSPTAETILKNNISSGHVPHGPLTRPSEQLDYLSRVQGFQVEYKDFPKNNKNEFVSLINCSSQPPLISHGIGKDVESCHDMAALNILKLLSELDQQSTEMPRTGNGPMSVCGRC
Assay Summary: fluorescence anisotropy; FA: 10 nM 5'-FAM RNA, 20 mM Hepes pH 7.5, 150 mM KCl, RT (19-21 C); EMSA: 1 uM RNA, same buffer, 45 min on ice
Condition Set: protein: recombinant; tags: tag removed or His/GST not specified; chain copies: 2; label: 5'-6-FAM on sense strand; blunt, two G-U wobbles
Quantity Measured: Kd (nM)

{"Binder": "ARF1 SBS (dsRNA) RNA 1: UGAGUGCCAGAAGCUGCCUC RNA 2: GAGGCAGUUUCUGGUACUCA", "Numeric Readout": 6}
